system: E31 (patient-derived glioblastoma stem cells of proneural subtype); experiment: phenotypic distance (Euclidean, principal components) from DMSO controls (arbitrary units); higher = stronger morphological change; details: 4.1 nM; exposure time: 72 h;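 also: cell Painting imaging in 384-well plates, CellProfiler features reduced to at least 20 principal components, Euclidean distance versus same-plate DMSO vehicle wells (0.1% v/v), median over six images per well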
Where a name gives a salt, the structure may show the parent alone.
quantity-measured: phenotypic distance
One number for each entry.

I need phenotypic distance for every entry listed below, if you could help.
1. CC[C@]1(O)C[C@@H]2CN(CCc3c([nH]c4ccccc34)[C@@](C(=O)OC)(c3cc4c(cc3OC)N(C)[C@H]3[C@@](O)(C(=O)OC)[C@H](OC(C)=O)[C@]5(CC)C=CCN6CC[C@]43[C@@H]65)C2)C1 [Vinblastine sulfate]
2. Cn1nnc2c(C(N)=O)ncn2c1=O [Temozolomide]
3. COc1cc([C@@H]2c3cc4c(cc3[C@@H](O[C@@H]3O[C@@H]5CO[C@@H](c6cccs6)O[C@H]5[C@H](O)[C@H]3O)[C@H]3COC(=O)[C@H]23)OCO4)cc(OC)c1O [Teniposide]
4. O=C1CCc2cc(OCCCCc3nnnn3C3CCCCC3)ccc2N1

Result block:
6.42
1.06
4.09
0.904

Report phenotypic distance for each item below.
1. CCn1cc(C(=O)O)c(=O)c2cc(F)c(N3CCNCC3)nc21
2. Nc1nc(=O)c2nc(CNc3ccc(C(=O)N[C@@H](CCC(=O)O)C(=O)O)cc3)cnc2[nH]1
3. CCCCC1C(=O)N(c2ccccc2)N(c2ccc(O)cc2)C1=O (stereo not drawn)
4. C[C@H]1O[C@@H](O[C@H]2[C@@H](O)C[C@H](O[C@H]3[C@@H](O)C[C@H](O[C@H]4CC[C@@]5(C)[C@H](CC[C@@H]6[C@@H]5C[C@@H](O)[C@]5(C)[C@@H](C7=CC(=O)OC7)CC[C@]65O)C4)O[C@@H]3C)O[C@@H]2C)C[C@H](O)[C@@H]1O
5. CNCCCC12CCC(c3ccccc31)c1ccccc12 [Maprotiline hydrochloride]
6. COc1nc(C)nc(Cl)c1NC1=NCCN1
7. CC[n+]1c(/C=C/C=C2/N(C)c3ccccc3C2(C)C)sc2ccccc21

Result block:
1. 0.556
2. 0.277
3. 0.939
4. 2.21
5. 0.322
6. 0.413
7. 2.01

Return reported phenotypic distance values for all items listed beneath this line.
1. Cc1cccn2c(=O)c(-c3nnn[nH]3)cnc12
2. CN1C(=O)OC(C)(C)C1=O

Result block:
1.22
0.578

Would you be so kind as to report phenotypic distance for each listed record?
1. CO[C@H]1C(=O)[C@]2(C)[C@@H](OC)C[C@H]3OC[C@@]3(OC(C)=O)[C@H]2[C@H](OC(=O)c2ccccc2)[C@]2(O)C[C@H](OC(=O)[C@H](O)[C@@H](NC(=O)OC(C)(C)C)c3ccccc3)C(C)=C1C2(C)C
2. C#C[C@]1(O)CC[C@H]2[C@@H]3CCC4=CCCC[C@@H]4[C@H]3CC[C@@]21C
3. CN(C)C(=O)Oc1ccc[n+](C)c1 [Pyridostigmine iodide]
4. Clc1ccc(COC(Cn2ccnc2)c2ccc(Cl)cc2Cl)cc1 (stereo not drawn) [Econazole nitrate]
5. CCC(C)(C)C(=O)O[C@H]1C[C@@H](C)C=C2C=C[C@H](C)[C@H](CC[C@@H]3C[C@@H](O)CC(=O)O3)[C@H]21
6. CC(C)NCC(O)COc1cccc2ccccc12 (stereo not drawn) [Propranolol hydrochloride]
7. COc1cccc2c1C(=O)c1c(O)c3c(c(O)c1C2=O)C[C@@](O)(C(=O)CO)C[C@@H]3O[C@H]1C[C@H](N)[C@H](O[C@@H]2CCCCO2)[C@H](C)O1
8. COC(=O)Nc1nc2cc(C(=O)c3ccc(F)cc3)ccc2[nH]1

Result block:
1. 4.63
2. 0.539
3. 0.409
4. 0.819
5. 0.808
6. 0.541
7. 3.76
8. 0.507

Cited source: the supplement of paper PMC13207355
